Data provenance: ChEMBL document CHEMBL6153133

Please provide measured remaining at 0.5 h, 1 µM for the entries that follow.
- TEST NAME: Metabolic stability in rat liver microsomes assessed as parent compound remaining at 1 uM preincubated for 5 mins followed by NADPH addition and measured after 30 mins by LC-MS/MS analysis
- Format: ADME, Microsome
- RECORDED CONDITIONS: read-out: Stability
Reply with just the number (in %).

## Input Quick one: remaining at 0.5 h, 1 µM of Oc1ccc(Oc2c(F)c(F)c(Cl)c(F)c2F)c(O)c1 ?
## Output 35.9

## Input Then what about the compound COc1cc(N)ccc1Oc1c(F)c(F)c(C(F)(F)F)c(F)c1F ?
## Output 7.2

## Input Then what about the compound Oc1cc(NCCCCN2CCOCC2)ccc1Oc1c(F)c(F)c(C(F)(F)F)c(F)c1F ?
## Output 62.5

## Input Then what about the compound Oc1cc(NCCCCCN2CCOCC2)ccc1Oc1c(F)c(F)c(C(F)(F)F)c(F)c1F ?
## Output 30.7

## Input Then what about the compound Nc1ccc(Oc2c(F)c(F)c(C(F)(F)F)c(F)c2F)cc1 ?
## Output 18.6

## Input Then what about the compound Nc1ccc(Oc2c(F)c(F)c(C(F)(F)F)c(F)c2F)c(F)c1 ?
## Output 12.7

## Input Then what about the compound Nc1ccc(Oc2c(F)c(F)c(C(F)(F)F)c(F)c2F)c(O)c1 ?
## Output 34.6

## Input Then what about the compound CNc1ccc(Oc2c(F)c(F)c(C(F)(F)F)c(F)c2F)c(O)c1 ?
## Output 4

----------
Please provide measured Tmax for the entries that follow.
- TEST NAME: Tmax in male Sprague-Dawley rat at 10 mg/kg, po by LC-MS/MS analysis
- Format: ADME, organism-based
- RECORDED CONDITIONS: in vivo
Reply with just the number (in min).

## Input Quick one: Tmax of Cl.Nc1ccc(Oc2c(F)c(F)c(C(F)(F)F)c(F)c2F)c(O)c1 ?
## Output 252

## Input Then what about the compound COc1cc(N)ccc1Oc1c(F)c(F)c(C(F)(F)F)c(F)c1F.Cl ?
## Output 72

## Input Then what about the compound Cl.Cl.Oc1cc(NCCCCN2CCOCC2)ccc1Oc1c(F)c(F)c(C(F)(F)F)c(F)c1F ?
## Output 42

## Input Then what about the compound Cl.Cl.Oc1cc(NCCCCCN2CCOCC2)ccc1Oc1c(F)c(F)c(C(F)(F)F)c(F)c1F ?
## Output 24

----------
Please provide measured remaining at 1 h, 1 µM for the entries that follow.
- TEST NAME: Metabolic stability in rat liver microsomes assessed as parent compound remaining at 1 uM preincubated for 15 mins followed by UDPGA addition and measured after 60 mins by LC-MS/MS analysis
- Type: ADME, Microsome
- RECORDED CONDITIONS: time 75 min, read-out: Stability

## Input Quick one: remaining at 1 h, 1 µM of COc1cc(N)ccc1Oc1c(F)c(F)c(C(F)(F)F)c(F)c1F ?
## Output 88.8%

## Input Then what about the molecule Nc1ccc(Oc2c(F)c(F)c(C(F)(F)F)c(F)c2F)c(O)c1 ?
## Output 5.8%

## Input Then what about the molecule CNc1ccc(Oc2c(F)c(F)c(C(F)(F)F)c(F)c2F)c(O)c1 ?
## Output 4.7%

----------
- TEST NAME: Oral bioavailability in male Dunkin Hartley guinea pig at 10 mg/kg by LC-MS/MS analysis
- Format: ADME, organism-based, Cavia porcellus
- RECORDED CONDITIONS: in vivo
ASSAY ENDPOINT: bioavailability (%)
Reply with just the number (in %).

## Input Quick one: bioavailability of Cl.Cl.Oc1cc(NCCCCCN2CCOCC2)ccc1Oc1c(F)c(F)c(C(F)(F)F)c(F)c1F ?
## Output 10.5

----------
- Tested on: Urinary bladder
- TEST NAME: Induction of relaxation in Sprague-Dawley rat urinary bladder strips assessed as reduction in contraction
- Assay type: functional, tissue-based
ASSAY ENDPOINT: pEC50
In plain terms, pEC50 is the concentration in mol/L turned into minus its base-10 logarithm.

## Input Quick one: pEC50 of O=C(O)c1ccc(Cl)c2c1[nH]c1c3ccc(C(F)(F)F)cc3oc12 ?
## Output 5.60

----------
- TEST NAME: Drug concentration in male Dunkin Hartley guinea pig lung at 10 mg/kg, po measured after 4 hrs by LC-MS/MS analysis
- Assay type: ADME, organism-based, Cavia porcellus
- RECORDED CONDITIONS: read-out: Ct
ASSAY ENDPOINT: concentration at 4 h (ng/g)
Reply with just the number (in ng/g).

## Input Quick one: concentration at 4 h of Cl.Cl.Oc1cc(NCCCCCN2CCOCC2)ccc1Oc1c(F)c(F)c(C(F)(F)F)c(F)c1F ?
## Output 13500

----------
- TEST NAME: Cmax in male Sprague-Dawley rat at 10 mg/kg, po by LC-MS/MS analysis
- Assay type: ADME, organism-based
- RECORDED CONDITIONS: in vivo
ASSAY ENDPOINT: Cmax (ng/mL)
Reply with just the number (in ng/mL).

## Input Quick one: Cmax of Cl.Cl.Oc1cc(NCCCCN2CCOCC2)ccc1Oc1c(F)c(F)c(C(F)(F)F)c(F)c1F ?
## Output 72.1

## Input Then what about the molecule COc1cc(N)ccc1Oc1c(F)c(F)c(C(F)(F)F)c(F)c1F.Cl ?
## Output 182

## Input Then what about the molecule Cl.Nc1ccc(Oc2c(F)c(F)c(C(F)(F)F)c(F)c2F)c(O)c1 ?
## Output 61.5

## Input Then what about the molecule Cl.Cl.Oc1cc(NCCCCCN2CCOCC2)ccc1Oc1c(F)c(F)c(C(F)(F)F)c(F)c1F ?
## Output 283

----------
- Test system: Calcium-activated potassium channel subunit alpha-1 (Homo sapiens), Q12791 [UNDEFINED MUTATION]
- Sequence (Q12791 whole entry, looked up, stated change not applied): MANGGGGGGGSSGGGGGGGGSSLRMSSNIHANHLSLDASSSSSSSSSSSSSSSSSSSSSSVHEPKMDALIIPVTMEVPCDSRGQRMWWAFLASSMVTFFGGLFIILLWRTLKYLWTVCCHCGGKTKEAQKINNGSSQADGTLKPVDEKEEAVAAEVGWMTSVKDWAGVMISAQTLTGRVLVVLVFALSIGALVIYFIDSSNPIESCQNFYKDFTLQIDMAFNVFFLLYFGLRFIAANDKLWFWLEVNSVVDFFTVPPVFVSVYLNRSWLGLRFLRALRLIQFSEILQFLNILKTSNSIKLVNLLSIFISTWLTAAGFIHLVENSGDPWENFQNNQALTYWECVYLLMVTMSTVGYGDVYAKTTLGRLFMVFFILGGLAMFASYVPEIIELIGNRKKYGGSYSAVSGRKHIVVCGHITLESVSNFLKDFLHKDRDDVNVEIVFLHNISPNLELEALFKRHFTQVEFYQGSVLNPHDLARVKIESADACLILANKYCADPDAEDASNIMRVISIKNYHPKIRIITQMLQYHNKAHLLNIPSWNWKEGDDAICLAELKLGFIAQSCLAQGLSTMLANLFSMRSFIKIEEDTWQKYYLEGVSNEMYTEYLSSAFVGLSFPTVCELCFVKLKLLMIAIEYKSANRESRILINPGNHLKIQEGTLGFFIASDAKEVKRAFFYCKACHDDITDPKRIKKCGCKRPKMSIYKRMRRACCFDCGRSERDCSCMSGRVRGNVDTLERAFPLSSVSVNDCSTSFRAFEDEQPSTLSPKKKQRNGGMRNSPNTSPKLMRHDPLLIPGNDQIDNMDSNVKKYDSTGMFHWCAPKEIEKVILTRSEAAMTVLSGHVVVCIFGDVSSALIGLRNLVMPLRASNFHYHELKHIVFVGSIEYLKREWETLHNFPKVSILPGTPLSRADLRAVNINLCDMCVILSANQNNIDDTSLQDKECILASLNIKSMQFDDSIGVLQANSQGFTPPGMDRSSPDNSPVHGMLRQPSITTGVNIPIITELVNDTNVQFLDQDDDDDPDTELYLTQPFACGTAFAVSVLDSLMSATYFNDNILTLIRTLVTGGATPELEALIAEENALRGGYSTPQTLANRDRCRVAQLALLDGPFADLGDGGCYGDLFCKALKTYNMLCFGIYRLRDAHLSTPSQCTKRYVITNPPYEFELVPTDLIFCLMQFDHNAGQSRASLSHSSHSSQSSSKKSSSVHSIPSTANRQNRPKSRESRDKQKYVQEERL
- TEST NAME: Activation of hyperactive human BKca channel G803D/N806K mutant transfected in human AD-293 cells incubated for 15 mins by Flexstation3 multimode microplate reader analysis
- Type: cell-based
The source made the active and inactive calls. No cut-off for these calls is given here.

{"SMI": "Nc1ccc(Oc2c(F)c(F)c(C(F)(F)F)c(F)c2F)nc1", "Activity": "inactive"}
{"SMI": "Oc1c(F)c(F)c(Cl)c(F)c1F", "Activity": "inactive"}
{"SMI": "Oc1ccc(O)c(O)c1", "Activity": "inactive"}

----------
- TEST NAME: Half-life in male Dunkin Hartley guinea pig at 10 mg/kg, po by LC-MS/MS analysis
- Type: ADME, organism-based, Cavia porcellus
- RECORDED CONDITIONS: in vivo
ASSAY ENDPOINT: half-life (h)
Reply with just the number (in h).

## Input Quick one: half-life of Cl.Cl.Oc1cc(NCCCCCN2CCOCC2)ccc1Oc1c(F)c(F)c(C(F)(F)F)c(F)c1F ?
## Output 4.7

----------
- System: Calcium-activated potassium channel subunit alpha-1 (Homo sapiens), Q12791 [UNDEFINED MUTATION]
- TEST NAME: Activation of hyperactive human BKca channel G803D/N806K mutant transfected in human AD-293 cells assessed as maximum relative fluorescence value at 1 uM preincubated for 15 mins followed by Tl+ stimulus buffer addition and measured after 80 sec by Flexstation3 multimode microplate reader analysis relative to control
- Format: cell-based
- RECORDED CONDITIONS: filed as opener, time 980.0 sec
Please provide measured Activity for the entries that follow.
Reply with just the number (in %).

## Input Quick one: Activity of Oc1ccc(Oc2c(F)c(F)c(Cl)c(F)c2F)c(O)c1 ?
## Output 41.6

## Input Then what about the compound CNc1ccc(Oc2c(F)c(F)c(C(F)(F)F)c(F)c2F)c(O)c1 ?
## Output 91.7

## Input Then what about the compound Oc1ccc(Oc2c(F)c(F)c(C(F)(F)F)c(F)c2F)c(O)c1 ?
## Output 81.3

## Input Then what about the compound Nc1ccc(Oc2c(F)c(F)c(C(F)(F)F)c(F)c2F)c(O)c1 ?
## Output 100

----------
- Test system: Calcium-activated potassium channel subunit alpha-1 (Homo sapiens), Q12791 [UNDEFINED MUTATION]
- TEST NAME: Activation of hyperactive human BKca channel G803D/N806K mutant transfected in human AD-293 cells assessed as maximum relative fluorescence value at 5 uM preincubated for 15 mins followed by Tl+ stimulus buffer addition and measured after 80 sec by Flexstation3 multimode microplate reader analysis relative to control
- Format: cell-based
- RECORDED CONDITIONS: filed as opener, time 980.0 sec
I'd appreciate it if you marked entries 1 when Activity is lower than 70% and 0 when it is not.

## Input Quick check: does Oc1cc(NCCCCCN2CCOCC2)ccc1Oc1c(F)c(F)c(C(F)(F)F)c(F)c1F have Activity under 70%?
## Output 0

## Input Then what about the compound CCNc1ccc(Oc2c(F)c(F)c(C(F)(F)F)c(F)c2F)c(O)c1 ?
## Output 1

## Input Then what about the compound Nc1ccc(Oc2c(F)c(F)c(C(F)(F)F)c(F)c2F)c(F)c1 ?
## Output 0

## Input Then what about the compound Oc1ccc(Oc2cc(C(F)(F)F)cc(C(F)(F)F)c2)c(O)c1 ?
## Output 0

## Input Then what about the compound Nc1ccc(Oc2c(F)c(F)c(C(F)(F)F)c(F)c2F)c(Cl)c1 ?
## Output 0

## Input Then what about the compound Oc1ccc(Oc2c(F)c(F)c(C(F)(F)F)c(F)c2F)c(O)c1 ?
## Output 0

## Input Then what about the compound CNc1ccc(Oc2c(F)c(F)c(C(F)(F)F)c(F)c2F)c(O)c1 ?
## Output 0

## Input Then what about the compound Oc1ccc(Oc2c(F)cc(C(F)(F)F)cc2F)c(O)c1 ?
## Output 1

## Input Then what about the compound NCCCCCNc1ccc(Oc2c(F)c(F)c(C(F)(F)F)c(F)c2F)c(O)c1 ?
## Output 1

## Input Then what about the compound Oc1ccc(Oc2ccc(Cl)c(C(F)(F)F)c2)c(O)c1 ?
## Output 0

## Input Then what about the compound COc1cc(N)ccc1Oc1c(F)c(F)c(C(F)(F)F)c(F)c1F ?
## Output 0
